biological target: Cdk9/cyclinT1 (Homo sapiens, UniProt P50750); experiment: Cdk9/cyclinT1 IMAP Protocol (fluorescence polarization kinase assay); conditions: Cdk9_cyclinT1_IC50, Table V; generated using one of the two Cdk9/cyclinT1 assays (IMAP or Alpha Screen), not stated which; ATP 6 uM
Sequence (P50750 whole entry): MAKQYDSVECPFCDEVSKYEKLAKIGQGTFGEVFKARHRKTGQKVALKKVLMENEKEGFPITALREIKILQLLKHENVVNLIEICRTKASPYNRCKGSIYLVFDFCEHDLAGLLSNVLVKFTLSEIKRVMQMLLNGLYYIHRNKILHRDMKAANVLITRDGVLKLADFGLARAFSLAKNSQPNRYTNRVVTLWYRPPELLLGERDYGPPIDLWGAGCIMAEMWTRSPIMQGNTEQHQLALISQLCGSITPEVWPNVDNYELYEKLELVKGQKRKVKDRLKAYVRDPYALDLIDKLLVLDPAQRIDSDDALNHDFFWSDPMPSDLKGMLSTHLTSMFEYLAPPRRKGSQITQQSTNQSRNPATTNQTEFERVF
Sequence (O60563 whole entry partner): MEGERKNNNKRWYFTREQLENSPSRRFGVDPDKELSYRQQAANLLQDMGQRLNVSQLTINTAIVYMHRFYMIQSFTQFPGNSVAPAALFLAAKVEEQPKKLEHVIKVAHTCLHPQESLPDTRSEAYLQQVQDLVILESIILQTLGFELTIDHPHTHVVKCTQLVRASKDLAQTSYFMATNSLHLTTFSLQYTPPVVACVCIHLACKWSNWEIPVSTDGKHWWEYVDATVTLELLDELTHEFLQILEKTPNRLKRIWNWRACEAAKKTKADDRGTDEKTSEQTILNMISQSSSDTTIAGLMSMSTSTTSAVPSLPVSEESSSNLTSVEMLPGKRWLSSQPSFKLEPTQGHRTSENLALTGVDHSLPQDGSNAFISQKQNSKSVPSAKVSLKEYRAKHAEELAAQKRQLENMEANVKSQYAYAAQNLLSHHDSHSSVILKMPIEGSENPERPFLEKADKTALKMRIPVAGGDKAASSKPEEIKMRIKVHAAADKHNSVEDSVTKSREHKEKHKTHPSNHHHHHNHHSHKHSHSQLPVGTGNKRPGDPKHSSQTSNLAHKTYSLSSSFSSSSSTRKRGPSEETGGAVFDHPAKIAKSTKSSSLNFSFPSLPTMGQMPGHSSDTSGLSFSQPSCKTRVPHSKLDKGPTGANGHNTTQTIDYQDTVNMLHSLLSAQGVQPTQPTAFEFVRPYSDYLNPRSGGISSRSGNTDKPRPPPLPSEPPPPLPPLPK
Recorded measurements of IC50, one per entry
Give just the numeric value; nM need not be written.

Past entries and their recorded results:
{"molecule": "O=C(Cc1cccnc1)Nc1cc(-c2cccc(NCC3CCOCC3)n2)c(Cl)cn1", "target.or.system": "Cdk9/cyclinT1 (Homo sapiens, UniProt P50750)", "quantity.kind": "IC50", "measurement.unit": "nM", "result": 9}
{"molecule": "O=C(Nc1cc(-c2cccc(NCC3CCOCC3)n2)c(Cl)cn1)[C@@H]1CNC[C@@H](C(F)(F)F)C1 (single isomer, unassigned)", "target.or.system": "Cdk9/cyclinT1 (Homo sapiens, UniProt P50750)", "quantity.kind": "IC50", "measurement.unit": "nM", "result": 129}
{"molecule": "O=C(Nc1cc(-c2cccc(NCC3CCOCC3)n2)c(Cl)cn1)c1cccnc1", "target.or.system": "Cdk9/cyclinT1 (Homo sapiens, UniProt P50750)", "quantity.kind": "IC50", "measurement.unit": "nM", "result": 56}
{"molecule": "COC[C@@H]1C[C@@H](C(=O)Nc2cc(-c3nc(NCC4CCOCC4)ccc3Cl)c(Cl)cn2)CN1", "target.or.system": "Cdk9/cyclinT1 (Homo sapiens, UniProt P50750)", "quantity.kind": "IC50", "measurement.unit": "nM", "result": 1}
{"molecule": "CCC1(CNc2nc(-c3cc(NC(=O)[C@@H]4CCCNC4)ncc3Cl)ccc2F)CCOCC1", "target.or.system": "Cdk9/cyclinT1 (Homo sapiens, UniProt P50750)", "quantity.kind": "IC50", "measurement.unit": "nM", "result": 1}

Okay, now this molecule:
For reference, reported IC50 for C[C@@H]1CC(CNc2cccc(-c3cc(NC(=O)[C@@H]4CCCNC4)ncc3Cl)n2)C[C@H](C)O1 (stereo partly shown) stands at 1

====

molecular target: Cdk9/cyclinT1 (Homo sapiens); experiment: Cdk9/cyclinT1 IMAP Protocol (fluorescence polarization kinase assay); conditions: Cdk9_cyclinT1_IC50, Table V; generated using one of the two Cdk9/cyclinT1 assays (IMAP or Alpha Screen), not stated which; ATP 6 uM
In this section we review reported pIC50 values for a set of compounds.
Hey, just a heads up that pIC50 is the negative log base 10 of the concentration in molar.

Example entries begin here.
{"compound": "O=C(Nc1cc(-c2nc(NCC3CCOCC3)ccc2F)c(Cl)cn1)C1CNCCOC1 (centres unmarked) [Example 204]", "result": 9.00}
{"compound": "CC(=O)Nc1cc(-c2cccc(NCC3CCOCC3)n2)c(Cl)cn1", "result": 6.86}
{"compound": "O=C(Nc1cc(-c2nc(NCC3CCOCC3)ccc2Cl)c(Cl)cn1)[C@H]1CNC[C@H]1F", "result": 8.05}

Now let's try a different one.
GET /value?item= COC[C@@H]1C[C@@H](C(=O)Nc2cc(-c3cccc(NCC4(C)CCOCC4)n3)c(Cl)cn2)CN1 &field=pIC50 returns 9.00

====

target: Cdk9/cyclinT1 (Homo sapiens, UniProt P50750); test: Cdk9/cyclinT1 IMAP Protocol (fluorescence polarization kinase assay); conditions: Cdk9_cyclinT1_IC50, Table V; generated using one of the two Cdk9/cyclinT1 assays (IMAP or Alpha Screen), not stated which; ATP 6 uM
Below: a set of entries, each annotated with reported pIC50.
Lab note — pIC50 values are minus log10 of concentrations in M.

Data point: O=C(Nc1cc(-c2cccc(NC3CCOCC3)n2)c(Cl)cn1)[C@@H]1CCCNC1 ; pIC50 = 7.12

For this compound ( CNCCC(=O)Nc1cc(-c2cccc(NCC3CCOCC3)n2)c(Cl)cn1 ), measured pIC50 is 7.43

Recorded result, CC(C)(C)OC(=O)N1CCC[C@H](C(=O)Nc2cc(-c3cccc(NCc4cccc(F)c4)n3)c(Cl)cn2)C1 , pIC50: 7.21

====

target: Cdk9/cyclinT1 (Homo sapiens); experiment: Cdk9/cyclinT1 IMAP Protocol (fluorescence polarization kinase assay); conditions: Cdk9_cyclinT1_IC50, Table V; generated using one of the two Cdk9/cyclinT1 assays (IMAP or Alpha Screen), not stated which; ATP 6 uM
quantity.kind: pIC50
Quick note: pIC50 means taking -log10 of the concentration in moles per liter.

Examples with their reported pIC50 follow.
{"molecule": "C[C@@H]1CC(CNc2cccc(-c3cc(NC(=O)C4CNCCOC4)ncc3Cl)n2)C[C@H](C)O1 (stereo partly shown)", "quantity.kind": "pIC50", "result": 8.52}
{"molecule": "CN(C)c1cccc(-c2cc(NC(=O)[C@@H]3CCCNC3)ncc2Cl)n1", "quantity.kind": "pIC50", "result": 6.99}
{"molecule": "CC1(C)COC[C@@H](CNc2nc(-c3cc(NC(=O)[C@@H]4CCCNC4)ncc3Cl)ccc2F)O1 (single isomer, unassigned)", "quantity.kind": "pIC50", "result": 9.00}

# next molecule below
For reference, reported pIC50 for O=C(Nc1cc(-c2cccc(NCC3CCOCC3)n2)c(Cl)cn1)C1CNCC(F)C1 (stereo not shown) stands at 8.22

====

target: Cdk9/cyclinT1 (Homo sapiens, UniProt P50750); experiment: Cdk9/cyclinT1 IMAP Protocol (fluorescence polarization kinase assay); settings: Cdk9_cyclinT1_IC50, Table V; generated using one of the two Cdk9/cyclinT1 assays (IMAP or Alpha Screen), not stated which; ATP 6 uM
# pIC50 listing for each entry below
# pIC50 = -log10(concentration in molar units)

{"compound": "O=C(Nc1cc(-c2cccc(NCC3CCOCC3)n2)c(Cl)cn1)[C@H]1CNC[C@@H](F)C1", "pIC50": 8.30}
{"compound": "CC1(C)C[C@H](CNc2cccc(-c3cc(NC(=O)[C@@H]4CCNC4)ncc3Cl)n2)CCO1", "pIC50": 9.00}

Now for another entry.
The measured pIC50 associated with C[C@@H]1CC[C@@H](C(=O)Nc2cc(-c3cccc(NC[C@H]4CCOC(C)(C)C4)n3)ccn2)CN1 (mixture of isomers) reads 8.70

====

Below is a list of entries, each paired with its recorded pIC50 value.
molecular target: Cdk9/cyclinT1 (Homo sapiens); test: Cdk9/cyclinT1 IMAP Protocol (fluorescence polarization kinase assay); conditions: Cdk9_cyclinT1_IC50, Table V; generated using one of the two Cdk9/cyclinT1 assays (IMAP or Alpha Screen), not stated which; ATP 6 uM
pIC50 (log units): -log10 of the concentration in mol/L.

The examples below pair each entry with its known result.
{"compound": "C[C@@H]1CC[C@@H](C(=O)Nc2cc(-c3ccc(F)c(NCC4CCOCC4)n3)c(Cl)cn2)CN1C (single isomer, unassigned)", "result": 7.77}
{"compound": "CC1(C)COC(CNc2cccc(-c3cc(NC(=O)[C@@H]4CCCNC4)ncc3Cl)n2)CO1 (stereo partly shown)", "result": 9.00}
{"compound": "O=C(Nc1cc(-c2cccc(NCC3(F)CCOCC3)n2)c(Cl)cn1)[C@@H]1CCCNC1", "result": 9.00}
{"compound": "CNc1cccc(-c2cc(NC(=O)[C@@H]3CCCNC3)ncc2Cl)n1", "result": 7.12}
{"compound": "O=C(Nc1cc(-c2cccc(NCC3CCOCC3)n2)c(Cl)cn1)C1CCCOC1 (stereo not shown)", "result": 7.72}

// compound C[C@H]1CC[C@H](C(=O)Nc2cc(-c3cccc(NCC4CCOCC4)n3)c(Cl)cn2)CN1 (single isomer, unassigned) , assay Cdk9/cyclinT1 (Homo sapiens), pIC50 value: 8.30

# lookup: O=C(Nc1cc(-c2cccc(NCC3CCOCC3)n2)c(Cl)cn1)[C@@H]1CN[C@H](CF)C1 on Cdk9/cyclinT1 (Homo sapiens), pIC50 = 9.00

The value of pIC50 recorded for O=C(Nc1cc(-c2cccc(NCC3CCOCC3)n2)c(Cl)cn1)C1CCOCC1 when tested on Cdk9/cyclinT1 (Homo sapiens) reads 7.57

Summary line: O=C(Nc1cc(-c2cccc(NCC3CCOCC3)n2)c(Cl)cn1)[C@H]1CCNC1 , Cdk9/cyclinT1 (Homo sapiens), reported pIC50 = 7.89

Kindly note: Cdk9/cyclinT1 (Homo sapiens), COC(=O)N1CCC[C@H](C(=O)Nc2cc(-c3nc(N[C@@H](C)C4CCOCC4)ccc3Cl)c(Cl)cn2)C1 , pIC50 value reported: 7.82

====

biological target: Cdk9/cyclinT1 (Homo sapiens, UniProt P50750); experiment: Cdk9/cyclinT1 IMAP Protocol (fluorescence polarization kinase assay); settings: Cdk9_cyclinT1_IC50, Table V; generated using one of the two Cdk9/cyclinT1 assays (IMAP or Alpha Screen), not stated which; ATP 6 uM
Overview of reported pIC50 across a group of compounds:
Interpret pIC50 as the negative base-10 log of the concentration measured in mol/L.

Take a look at these entries with their results.
{"compound": "O=C(Nc1cc(-c2cccc(NCC3CCOCC3)n2)c(Cl)cn1)[C@H]1CNC[C@@H](C(F)(F)F)C1 (single isomer, unassigned) [Example 182]", "target.or.system": "Cdk9/cyclinT1 (Homo sapiens, UniProt P50750)", "result": 8.40}
{"compound": "C[C@H](O)CNc1cccc(-c2cc(NC(=O)[C@@H]3CCCNC3)ncc2Cl)n1", "target.or.system": "Cdk9/cyclinT1 (Homo sapiens, UniProt P50750)", "result": 7.34}
{"compound": "CC[C@H]1CC[C@H](C(=O)Nc2cc(-c3ccc(F)c(NCC4CCOCC4)n3)c(Cl)cn2)CN1 (single isomer, unassigned)", "target.or.system": "Cdk9/cyclinT1 (Homo sapiens, UniProt P50750)", "result": 8.30}
{"compound": "C[C@@H]1CC[C@@H](C(=O)Nc2cc(-c3cccc(NC[C@@H]4CCOC(C)(C)C4)n3)c(Cl)cn2)CN1 (mixture of isomers) [Example 225]", "target.or.system": "Cdk9/cyclinT1 (Homo sapiens, UniProt P50750)", "result": 9.00}

Entry C[C@H]1CC[C@@H](C(=O)Nc2cc(-c3cccc(NCC4CCOCC4)n3)c(Cl)cn2)CN1 (racemic) [Example 126] , tested on Cdk9/cyclinT1 (Homo sapiens, UniProt P50750), has a reported pIC50 of 7.74

O=C(Nc1cc(-c2nc(NCC3CCOCC3)ccc2F)c(Cl)cn1)C1CNCCOC1 (single isomer, unassigned) [Example 223] on Cdk9/cyclinT1 (Homo sapiens, UniProt P50750) gives pIC50 = 8.40

Simply: CC(C)S(=O)(=O)N1CCC[C@H](C(=O)Nc2cc(-c3nc(NC[C@@H]4CCOC(C)(C)C4)ccc3Cl)c(Cl)cn2)C1 (single isomer, unassigned) , Cdk9/cyclinT1 (Homo sapiens, UniProt P50750), pIC50 = 9.00

Test item O=C(Nc1cc(-c2cccc(NCC3CCOCC3)n2)c(Cl)cn1)[C@@H]1CCCN1 ; Cdk9/cyclinT1 (Homo sapiens, UniProt P50750); reported pIC50 was 6.94
